Origin of the recorded values: ChEMBL document CHEMBL1156829

measurement.description: NOVARTIS: Cytotoxicity against human hepatocellular carcinoma cell line (Huh7)
Assay type: toxicity, cell-based, Huh-7
experimental.context: Huh7 cells (hepatocellular carcinoma cell line)
Reported CC50 by item:

Solved entries:
1. C(=NNc1nc2ccccc2[nH]1)c1ccc2c(c1)OCO2 = > 100 µM
2. O=C(CSc1nc(-c2ccccc2Cl)ns1)Nc1ccc2c(c1)OCCO2 = > 100 µM
3. CCOC(=O)C(=CNc1ccc(I)cn1)C(=O)OCC = > 10 µM
4. CCN(CC)CCCC(C)Nc1c2ccc(Cl)cc2nc2ccc(OC)nc12 (stereo unspecified) = > 6.25 µM
5. CN(C)c1ccc(/C=C/C(=O)NC(=O)c2ccccc2O)cc1 = > 10 µM

Query: Input CCC(=O)Nc1ccc2nc(SCC(=O)Nc3ccc(C(C)=O)cc3)sc2c1 , output reported CC50.
Response: > 100 µM
